# solubility per record follows
Test: Solubility in phosphate buffer at pH 7.4
Type: physicochemical
measured.quantity: solubility

>  <compound>
CC(=O)OC(C)OC(=O)NC(=N)c1ccc2[nH]c(-c3cccc(-c4ccccc4O)c3O)cc2c1 (stereo not given)

>  <observed.result>
< 10 µM

$$$$
>  <compound>
CC(C)OC(=O)NC(=N)c1ccc2[nH]c(-c3cccc(-c4ccccc4O)c3O)cc2c1

>  <observed.result>
< 10 µM

$$$$
>  <compound>
CC(C)(C)ONC(=N)c1ccc2[nH]c(-c3cccc(-c4ccccc4O)c3O)cc2c1

>  <observed.result>
< 10 µM

$$$$
>  <compound>
N/C(=N/C(=O)OCC(Cl)(Cl)Cl)c1ccc2[nH]c(-c3cccc(-c4ccccc4O)c3O)cc2c1

>  <observed.result>
< 10 µM

$$$$
>  <compound>
CCONC(=N)c1ccc2[nH]c(-c3cccc(-c4ccccc4O)c3O)cc2c1

>  <observed.result>
43 µM

$$$$

###

Test: Stability in rat liver microsome at 2 uM after 1 hr
Format: ADME
Conditions: liver microsomes, read-out: Stability
# remaining at 1 h, 2 µM per record follows
measured.quantity: remaining at 1 h, 2 µM (%)

>  <query.smiles>
N/C(=N/O)c1ccc2[nH]c(-c3cccc(-c4ccccc4O)c3O)cc2c1

>  <measured.quantity>
remaining at 1 h, 2 µM

>  <reading.unit>
%

>  <observed.result>
9

$$$$
>  <query.smiles>
C=CCO/N=C(/N)c1ccc2[nH]c(-c3cccc(-c4ccccc4O)c3O)cc2c1

>  <measured.quantity>
remaining at 1 h, 2 µM

>  <reading.unit>
%

>  <observed.result>
42

$$$$
>  <query.smiles>
CC(C)ONC(=N)c1ccc2[nH]c(-c3cccc(-c4ccccc4O)c3O)cc2c1

>  <measured.quantity>
remaining at 1 h, 2 µM

>  <reading.unit>
%

>  <observed.result>
69

$$$$
>  <query.smiles>
N=C(N)c1ccc2[nH]c(-c3cccc(-c4cc(F)ccc4O)c3O)cc2c1

>  <measured.quantity>
remaining at 1 h, 2 µM

>  <reading.unit>
%

>  <observed.result>
100

$$$$
>  <query.smiles>
N/C(=N/C(=O)OCC(Cl)(Cl)Cl)c1ccc2[nH]c(-c3cccc(-c4ccccc4O)c3O)cc2c1

>  <measured.quantity>
remaining at 1 h, 2 µM

>  <reading.unit>
%

>  <observed.result>
9

$$$$

###

Assay: Stability in human liver microsome at 2 uM after 1 hr
Assay type: ADME
Details: liver microsomes, read-out: Stability
# remaining at 1 h, 2 µM per record follows
measured.quantity: remaining at 1 h, 2 µM

>  <compound>
C=CCO/N=C(/N)c1ccc2[nH]c(-c3cccc(-c4ccccc4O)c3O)cc2c1

>  <observed.result>
55%

$$$$
>  <compound>
CCOC(=O)NC(=N)c1ccc2[nH]c(-c3cccc(-c4ccccc4O)c3O)cc2c1

>  <observed.result>
37%

$$$$
>  <compound>
N/C(=N/O)c1ccc2[nH]c(-c3cccc(-c4ccccc4O)c3O)cc2c1

>  <observed.result>
41%

$$$$
>  <compound>
CC(=O)OC(C)OC(=O)NC(=N)c1ccc2[nH]c(-c3cccc(-c4ccccc4O)c3O)cc2c1 (centres undefined)

>  <observed.result>
9%

$$$$
>  <compound>
CC(C)(C)ONC(=N)c1ccc2[nH]c(-c3cccc(-c4ccccc4O)c3O)cc2c1

>  <observed.result>
100%

$$$$
>  <compound>
CCONC(=N)c1ccc2[nH]c(-c3cccc(-c4ccccc4O)c3O)cc2c1

>  <observed.result>
50%

$$$$
>  <compound>
N/C(=N/C(=O)OCC(Cl)(Cl)Cl)c1ccc2[nH]c(-c3cccc(-c4ccccc4O)c3O)cc2c1

>  <observed.result>
87%

$$$$
>  <compound>
N=C(N)c1ccc2[nH]c(-c3cccc(-c4cc(F)ccc4O)c3O)cc2c1

>  <observed.result>
61%

$$$$
>  <compound>
CC(C)ONC(=N)c1ccc2[nH]c(-c3cccc(-c4ccccc4O)c3O)cc2c1

>  <observed.result>
63%

$$$$
